molecular target: IKKε (Homo sapiens (Human), UniProt Q14164); assay: IKKε TR-FRET enzymatic assay; type: biochemical; conditions: read-out: IKKe IC50
Sequence (Q14164 whole entry): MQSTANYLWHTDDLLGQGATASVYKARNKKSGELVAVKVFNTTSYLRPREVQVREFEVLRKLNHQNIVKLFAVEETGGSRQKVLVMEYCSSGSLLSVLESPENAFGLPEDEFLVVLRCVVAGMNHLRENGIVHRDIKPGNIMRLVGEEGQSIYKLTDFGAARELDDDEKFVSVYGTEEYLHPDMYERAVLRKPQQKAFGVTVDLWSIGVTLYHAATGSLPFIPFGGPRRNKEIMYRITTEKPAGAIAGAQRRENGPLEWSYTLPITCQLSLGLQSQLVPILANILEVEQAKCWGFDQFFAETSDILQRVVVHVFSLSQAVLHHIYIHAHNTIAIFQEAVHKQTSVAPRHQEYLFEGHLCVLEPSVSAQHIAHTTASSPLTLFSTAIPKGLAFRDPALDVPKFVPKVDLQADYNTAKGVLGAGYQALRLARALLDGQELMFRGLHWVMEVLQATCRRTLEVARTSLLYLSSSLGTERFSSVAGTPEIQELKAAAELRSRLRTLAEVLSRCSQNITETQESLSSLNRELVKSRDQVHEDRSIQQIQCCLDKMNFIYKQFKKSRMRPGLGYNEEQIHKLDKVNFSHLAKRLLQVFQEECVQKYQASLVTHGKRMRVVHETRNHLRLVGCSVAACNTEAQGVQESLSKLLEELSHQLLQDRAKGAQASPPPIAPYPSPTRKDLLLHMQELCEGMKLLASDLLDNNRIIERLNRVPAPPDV
Kindly state log10(IC50) for each of the entries shown.
The common logarithm of IC50 in nM is what is listed.

Worked set:
COMPOUND | log10(IC50)
CCn1cc(Nc2ncnc(-c3ccc(O[C@H]4CCN(C(=O)CO)C[C@H]4F)c(C#N)c3)n2)cn1 | 0.30
CC(C)(O)c1ccc(Nc2ncnc(-c3ccc(OC4CCOCC4)c(C#N)c3)n2)cc1 | 1.36
CC(=O)N1CC[C@@H](Oc2ccc(-c3ncnc(Nc4ccc(N5CCN(C6COC6)CC5)cc4)n3)cc2C#N)C1 | 2.00
COc1cc(Nc2ncnc(-c3ccc(OC4CCOCC4)c(C#N)c3)n2)ccc1N1CCN(C2COC2)CC1 | 0.30
N#Cc1cc(-c2ncnc(Nc3ccc(N4CCN(C5COC5)CC4)cc3)n2)ccc1O[C@H]1CCNCC1(F)F (single isomer, unassigned) | 2.36
N#Cc1cc(-c2ncnc(Nc3ccc(N4CCN(C5COC5)CC4)cc3)n2)ccc1O[C@H]1CCN(C(=O)c2[nH]nc(N)c2Cl)C[C@H]1F | 0.48
N#CCC(=O)N1CC[C@H](Oc2ccc(-c3ncnc(Nc4ccc(N5CCN(C6COC6)CC5)cc4)n3)cc2C#N)C(F)(F)C1 | 0.30
N#Cc1cc(-c2ncnc(Nc3ccc(N4CCN(C5COC5)CC4)cc3)n2)ccc1O[C@H]1CN(C(=O)CO)CC1(F)F (single isomer, unassigned) | 1.00
N#Cc1cc(-c2ncnc(Nc3ccc(N4CCN(C5COC5)CC4)cc3)n2)ccc1OC1CCN(C(=O)c2ncc[nH]2)CC1 | 1.28
C[C@@H]1CN(c2ccc(Nc3ncnc(-c4ccc(O[C@H]5CCN(C(=O)[C@@H](C)O)CC5(F)F)c(C#N)c4)n3)cc2)CCN1C1COC1 | 0.48

Turning now to a further record.
Entry `C[C@H](O)C(=O)N1CC[C@H](Oc2ccc(-c3ncnc(Nc4ccc(N5CCN(C6COC6)[C@@H](C)C5)cc4)n3)cc2C#N)[C@H](F)C1` , tested on IKKε (Homo sapiens (Human), UniProt Q14164), has a reported log10(IC50) of 0.00

###

target: IKKε (Homo sapiens (Human), UniProt Q14164); experiment: IKKε TR-FRET enzymatic assay; type: biochemical; conditions: TR-FRET, 2×Km ATP; geometric mean of minimum four determinations; read-out: IKKe IC50
PROPERTY: pIC50
One number for each entry, as −log10 of the molar value.

Worked set:
SMILES | STUDY SYSTEM | NUMERIC VALUE
CC(C)[C@H](O)C(=O)N1CC[C@H](Oc2ccc(-c3ncnc(Nc4ccc(N5CCN(C6COC6)CC5)cc4)n3)cc2C#N)[C@H](F)C1 | IKKε (Homo sapiens (Human), UniProt Q14164) | 7.20
C[C@H](O)C(=O)N1CC[C@H](Oc2ccc(-c3ncnc(Nc4cccc(CN5CCOCC5)c4)n3)cc2C#N)[C@H](F)C1 | IKKε (Homo sapiens (Human), UniProt Q14164) | 8.70

Turning now to a further record.
Per the records, this molecule ( `C[C@H](O)CC(=O)N1CC[C@H](Oc2ccc(-c3ncnc(Nc4ccc(N5CCN(C6COC6)CC5)cc4)n3)cc2C#N)[C@H](F)C1` ) has pIC50 equal to 7.36

###

biological target: UniProt O60674
Sequence (O60674 whole entry): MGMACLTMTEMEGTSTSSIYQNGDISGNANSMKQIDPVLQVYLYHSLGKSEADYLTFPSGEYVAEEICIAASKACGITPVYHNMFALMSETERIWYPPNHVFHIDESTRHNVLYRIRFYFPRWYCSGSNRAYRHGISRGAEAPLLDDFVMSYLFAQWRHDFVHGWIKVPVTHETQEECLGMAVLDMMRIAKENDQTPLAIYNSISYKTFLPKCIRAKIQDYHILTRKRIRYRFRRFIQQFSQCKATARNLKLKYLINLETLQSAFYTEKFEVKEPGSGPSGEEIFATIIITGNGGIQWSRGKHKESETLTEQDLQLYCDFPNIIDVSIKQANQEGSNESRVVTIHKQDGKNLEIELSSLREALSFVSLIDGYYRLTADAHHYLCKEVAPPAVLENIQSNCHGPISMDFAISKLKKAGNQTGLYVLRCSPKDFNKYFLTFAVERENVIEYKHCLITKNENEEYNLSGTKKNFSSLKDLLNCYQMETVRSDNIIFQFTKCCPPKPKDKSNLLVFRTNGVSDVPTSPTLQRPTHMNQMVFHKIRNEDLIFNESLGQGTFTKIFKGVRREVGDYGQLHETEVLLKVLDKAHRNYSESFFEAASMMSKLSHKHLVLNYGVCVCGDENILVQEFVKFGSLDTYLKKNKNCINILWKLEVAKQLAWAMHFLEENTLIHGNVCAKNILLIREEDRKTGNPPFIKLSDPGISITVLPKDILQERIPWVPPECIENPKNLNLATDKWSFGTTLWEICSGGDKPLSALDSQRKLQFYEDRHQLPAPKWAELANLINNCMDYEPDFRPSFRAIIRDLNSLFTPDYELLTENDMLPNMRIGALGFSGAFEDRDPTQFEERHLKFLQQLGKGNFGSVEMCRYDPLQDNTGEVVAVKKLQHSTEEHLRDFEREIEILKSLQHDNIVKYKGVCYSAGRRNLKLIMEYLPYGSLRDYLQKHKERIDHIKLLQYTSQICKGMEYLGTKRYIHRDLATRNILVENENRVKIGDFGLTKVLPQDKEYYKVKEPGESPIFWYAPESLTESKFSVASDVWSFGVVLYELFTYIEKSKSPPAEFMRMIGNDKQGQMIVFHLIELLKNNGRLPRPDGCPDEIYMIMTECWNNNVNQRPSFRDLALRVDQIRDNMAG
Kindly state IC50 for each of the entries shown.
One number for each entry, in nM.

Worked set:
MOLECULE | STUDY SYSTEM | NUMERIC VALUE
COCC(O)C(=O)N1CC[C@H](Oc2ccc(-c3ncnc(Nc4ccc(N5CCN(C6COC6)CC5)cc4)n3)cc2C#N)[C@H](F)C1 (stereo partly drawn) [Example 557] | UniProt O60674 | 917
N#Cc1cc(-c2ncnc(Nc3ccc(N4CCN(C5COC5)CC4)cc3)n2)ccc1O[C@H]1CCN(C(=O)c2[nH]ncc2N)C[C@H]1F [Example 391] | UniProt O60674 | 122
Cc1cc(Nc2ncnc(-c3ccc(O[C@H]4CCN(C(=O)[C@@H](O)CO)C[C@H]4F)c(C#N)c3)n2)ccc1N1CCN(C2COC2)CC1 [Example 575] | UniProt O60674 | 62
C[C@H]1CN(C2COC2)CCN1c1ccc(Nc2ncnc(-c3ccc(O[C@H]4CCN(C(=O)c5cnc[nH]5)C[C@H]4F)c(C#N)c3)n2)cc1 [Example 256] | UniProt O60674 | 144
C[C@H](O)C(=O)N1CC[C@H](Oc2ccc(-c3ncnc(Nc4ccc(N5C6COCC5C6)cc4)n3)cc2C#N)[C@H](F)C1 [Example 366] | UniProt O60674 | 531
COc1cc(Nc2ncnc(-c3ccc(O[C@H]4CCN(C(=O)[C@H](C)O)C[C@H]4F)c(C#N)c3)n2)ccc1N1CCC(N2CCOCC2)CC1 [Example 326] | UniProt O60674 | 72
C[C@H](O)C(=O)N1CC[C@H](Oc2ccc(-c3ncnc(Nc4ccc(N5CCO[C@@H](CO)C5)cc4)n3)cc2C#N)[C@H](F)C1 [Example 231] | UniProt O60674 | 486
CC(C)[C@@H](O)C(=O)N1CC[C@H](Oc2ccc(-c3ncnc(Nc4ccc(N5CCN(C6COC6)CC5)cc4)n3)cc2C#N)[C@H](F)C1 [Example 465] | UniProt O60674 | 706
N#Cc1cc(-c2ncnc(Nc3ccc(N4CCN(C5COC5)CC4)cc3)n2)ccc1NC1CCOCC1 [Example 121] | UniProt O60674 | 32

Turning now to a further record.
Per the records, this molecule ( N#Cc1cc(-c2ncnc(Nc3ccc(N4CCN(C5COC5)CC4)cc3)n2)ccc1O[C@H]1CCN(C(=O)CO)C[C@H]1C(F)(F)F (relative stereo) [Example 439] ) has IC50 equal to 21

###

Kindly state IC50 for each of the entries shown.
target: TBK1 (Homo sapiens (Human)); test: TBK1 TR-FRET enzymatic assay
Sequence (Q9UHD2 whole entry): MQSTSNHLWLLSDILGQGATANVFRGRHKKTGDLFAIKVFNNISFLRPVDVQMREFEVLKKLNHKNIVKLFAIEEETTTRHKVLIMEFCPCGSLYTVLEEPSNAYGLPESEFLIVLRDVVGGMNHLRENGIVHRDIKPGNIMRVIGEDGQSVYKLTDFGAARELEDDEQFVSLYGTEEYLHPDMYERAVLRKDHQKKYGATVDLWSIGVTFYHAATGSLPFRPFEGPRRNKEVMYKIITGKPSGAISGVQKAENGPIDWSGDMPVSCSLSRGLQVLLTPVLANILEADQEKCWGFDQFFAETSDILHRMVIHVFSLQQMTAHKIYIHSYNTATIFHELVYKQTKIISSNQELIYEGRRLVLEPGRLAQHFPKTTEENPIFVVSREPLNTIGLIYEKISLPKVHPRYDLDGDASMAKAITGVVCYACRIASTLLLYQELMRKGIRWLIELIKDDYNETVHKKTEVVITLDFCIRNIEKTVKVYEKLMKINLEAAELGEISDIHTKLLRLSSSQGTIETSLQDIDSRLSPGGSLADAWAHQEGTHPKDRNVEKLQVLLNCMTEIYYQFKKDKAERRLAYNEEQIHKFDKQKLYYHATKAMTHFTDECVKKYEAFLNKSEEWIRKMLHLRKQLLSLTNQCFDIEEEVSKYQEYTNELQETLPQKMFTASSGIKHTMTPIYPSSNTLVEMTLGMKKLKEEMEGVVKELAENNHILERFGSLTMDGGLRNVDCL
Give bare numbers, in nM.

COMPOUND | STUDY SYSTEM | PROPERTY | OUTPUT UNIT | NUMERIC VALUE
C[C@H](O)C(=O)N1CCC(Oc2ccc(-c3ncnc(Nc4ccc(N5CCO[C@@H](CO)C5)cc4)n3)cc2C#N)C(F)(F)C1 (stereo partly shown) [Example 228] | TBK1 (Homo sapiens (Human)) | IC50 | nM | 1

Batch of 4 compounds: report IC50 for each.
1. N#Cc1cc(-c2ncnc(Nc3ccc(N4CCN(C5COC5)CC4)cc3)n2)ccc1O[C@H]1CCN(C(=O)c2nnc[nH]2)CC1(F)F [Example 166]
2. Cc1cc(Nc2ncnc(-c3ccc(O[C@H]4CCN(C=O)CC4(F)F)c(C#N)c3)n2)ccc1C1CCN(C)CC1 [Example 304]
3. CN1C(=O)CC[C@H]1C(=O)N1CC[C@H](Oc2ccc(-c3ncnc(Nc4ccc(N5CCN(C6COC6)CC5)cc4)n3)cc2C#N)[C@H](F)C1 [Example 407]
4. N#Cc1cc(-c2ncnc(Nc3ccc(N4CCN(C5COC5)CC4)cc3)n2)ccc1O[C@H]1CCN(C(=O)NO)C[C@H]1F [Example 478]

1. 2
2. 2
3. 165
4. 3

###

target: IKKε (Homo sapiens (Human), UniProt Q14164); test: IKKε TR-FRET enzymatic assay; assay type: biochemical; conditions: TR-FRET, 2×Km ATP; geometric mean of minimum four determinations; read-out: IKKe IC50
Doc: threshold 20 nM (exclusive). Items with IC50 beneath it return true; others return false.

COMPOUND | ANSWER LABEL
N#Cc1cc(-c2ncnc(Nc3ccc(N4CCN(C5COC5)CC4)cc3)n2)ccc1O[C@H]1CCN(C(=O)[C@@H](O)CO)C[C@H]1F | true
N#Cc1cc(-c2ncnc(Nc3cnn(CCO)c3)n2)ccc1O[C@H]1CCN(C(=O)CO)C[C@H]1F | true
N#Cc1cc(OC[C@H]2CCN(C(=O)CO)C2)cc(-c2ncnc(Nc3ccc(N4CCN(C5COC5)CC4)cc3)n2)c1 | false
N#Cc1cc(-c2ncnc(Nc3ccc(N4CCN(C5COC5)CC4)cc3)n2)ccc1O[C@H]1CCN(C(=O)NO)C[C@H]1F | true
N#Cc1cc(-c2ncnc(Nc3ccc(N4CCN(C5COC5)CC4)cc3)n2)ccc1OCC1CCC(=O)N1 (stereo not shown) | false

Just wondering, is IC50 of `CCOc1ccc(Nc2ncnc(-c3ccc(O[C@H]4CCN(C(=O)[C@H](C)O)C[C@H]4F)c(C#N)c3)n2)cn1` below 20 nM?
true

Just wondering, is IC50 of `N#Cc1cc(-c2ncnc(Nc3ccc(N4CCN(C5COC5)CC4)cc3)n2)ccc1O[C@H]1CCN(C(=O)[C@H]2CCCO2)C[C@H]1F` below 20 nM?
false

###

Kindly state pIC50 for each of the entries shown.
target: TBK1 (Homo sapiens (Human)); assay: TBK1 TR-FRET enzymatic assay;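 further: phosphorylation of a biotinylated Ser/Thr peptide by purified full-length recombinant TBK1, read by TR-FRET after 240 min at 25 °C, IC50 is the geometric mean of at least four runs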
One number for each entry, as −log10 of the molar value.

Worked set:
MOLECULE | pIC50
N#Cc1cc(-c2ncnc(Nc3ccc(N4CCN(C5COC5)CC4)cc3)n2)ccc1O[C@H]1CCN(C2COC2)C[C@H]1F [Example 111] | 6.84
CN1C(=O)CC[C@H]1C(=O)N1CC[C@H](Oc2ccc(-c3ncnc(Nc4ccc(N5CCN(C6COC6)CC5)c(F)c4)n3)cc2C#N)[C@H](F)C1 [Example 408] | 7.07
N#Cc1cc(-c2ncnc(Nc3ccc(N4CCN(C5COC5)CC4)cc3)n2)ccc1OC1CCCCC1 [Example 217] | 8.40
C[C@H](CO)C(=O)N1CC[C@H](Oc2ccc(-c3ncnc(Nc4ccc(N5CCN(C6COC6)CC5)cc4)n3)cc2C#N)[C@H](F)C1 [Example 124] | 7.82
COCC(=O)N1CC[C@H](Oc2ccc(-c3ncnc(Nc4ccc(N5CCN(C6COC6)CC5)c(F)c4)n3)cc2C#N)[C@H](F)C1 [Example 402] | 8.52

Turning now to a further record.
Per the records, this molecule ( CO[C@@H](C)C(=O)N1CC[C@H](Oc2ccc(-c3ncnc(Nc4ccc(N5CCN(C6COC6)CC5)cc4)n3)cc2C#N)[C@H](F)C1 [Example 547] ) has pIC50 equal to 7.96
